Target: UniProt P07374
Sequence (P07374 whole entry, looked up): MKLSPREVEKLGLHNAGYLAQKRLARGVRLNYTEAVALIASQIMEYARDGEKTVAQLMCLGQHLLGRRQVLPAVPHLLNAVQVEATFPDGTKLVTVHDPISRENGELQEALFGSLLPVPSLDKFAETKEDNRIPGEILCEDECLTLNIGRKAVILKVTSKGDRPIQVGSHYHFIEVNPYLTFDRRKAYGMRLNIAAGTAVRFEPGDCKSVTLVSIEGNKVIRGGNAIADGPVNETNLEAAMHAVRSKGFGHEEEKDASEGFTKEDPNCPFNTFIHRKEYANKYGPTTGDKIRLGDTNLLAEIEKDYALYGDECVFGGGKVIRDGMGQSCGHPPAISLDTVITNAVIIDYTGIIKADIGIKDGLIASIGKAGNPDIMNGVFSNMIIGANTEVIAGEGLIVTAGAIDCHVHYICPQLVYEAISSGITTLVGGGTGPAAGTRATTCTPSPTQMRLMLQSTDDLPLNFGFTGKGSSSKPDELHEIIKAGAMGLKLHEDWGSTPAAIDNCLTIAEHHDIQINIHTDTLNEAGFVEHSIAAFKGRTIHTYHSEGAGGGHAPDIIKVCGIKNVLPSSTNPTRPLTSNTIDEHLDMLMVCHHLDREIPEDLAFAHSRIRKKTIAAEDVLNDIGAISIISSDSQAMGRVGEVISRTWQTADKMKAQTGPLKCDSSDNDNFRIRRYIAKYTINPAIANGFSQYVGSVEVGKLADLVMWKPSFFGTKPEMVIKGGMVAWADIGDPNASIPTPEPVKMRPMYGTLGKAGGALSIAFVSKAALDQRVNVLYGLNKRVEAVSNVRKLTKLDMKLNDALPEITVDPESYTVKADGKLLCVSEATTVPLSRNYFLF
Assay: biochemical
Assay type: biochemical
MEASURED_PROPERTY: IC50 (µM)

> print(dat)
                               item.smiles  assayed.target  measured.property  recorded.value
1              C#CCOc1ccc([N+](=O)[O-])cc1  UniProt P07374               IC50             360
2                      C#CCOc1ccc(Br)cc1Br  UniProt P07374               IC50             242
3                      C#CCOc1ccc(Cl)cc1Br  UniProt P07374               IC50             264
4                      C#CCOc1ccc(Br)cc1Cl  UniProt P07374               IC50             245
5  C#CCOc1ccc(S(=O)(=O)c2ccc(OCC#C)cc2)cc1  UniProt P07374               IC50             217
